Experiment: in vitro
Details: female, mouse, microsomes, pH 7.4
READOUT TYPE: half-life at 20 μM

Enquiry: Could you please provide reported half-life at 20 μM for NC(=O)N1c2ccccc2C=Cc2ccccc21 [carbamazepine] ? Thanks!
Return: > 4 h

---

Reported Papp at 30 min, 0.05 µM by item:
Assay: Parallel Artificial Membrane Permeability Assay (PAMPA)
Settings: pH 7.4
Method: Parallel Artificial Membrane Permeability Assay (PAMPA) was conducted by Biomek FX lab automation workstation (Beckman Coulter, Inc.) and PAMPA evolution 96 command software (pION Inc.). […] Diluted test compound (150 µL) was transferred to a UV plate (pION Inc.) and the UV spectrum was read as the reference plate. […] The UV spectrum (250-500 nm) of the donor and the acceptor solutions were recorded. […]
Number in ×10⁻⁶ cm/s, nothing else.

compound="Cc1ccc(-c2nc3ccccc3s2)cc1NC(=O)c1cc([N+](=O)[O-])c(N2CCN(C)CC2)cc1Cl [Compound 5]" measurement=237
compound="CCCSc1ccc2nc(NC(=O)OC)[nH]c2c1 [albendazole]" measurement=204

Field: next compound
Enquiry: Could you please provide reported Papp at 30 min, 0.05 µM for COc1ccc(-c2c(C(F)(F)F)oc3c(CN4CCN(C)CC4)c(O)ccc3c2=O)cc1OC [Compound 4] ? Thanks!
Return: 375

These entries and their values trace back to paper PMC5764437.
